Provenance of the data: patent US20220177587A1

Target: human PD-L1 (human) (UniProt Q9NZQ7)
Sequence (Q9NZQ7 19-290): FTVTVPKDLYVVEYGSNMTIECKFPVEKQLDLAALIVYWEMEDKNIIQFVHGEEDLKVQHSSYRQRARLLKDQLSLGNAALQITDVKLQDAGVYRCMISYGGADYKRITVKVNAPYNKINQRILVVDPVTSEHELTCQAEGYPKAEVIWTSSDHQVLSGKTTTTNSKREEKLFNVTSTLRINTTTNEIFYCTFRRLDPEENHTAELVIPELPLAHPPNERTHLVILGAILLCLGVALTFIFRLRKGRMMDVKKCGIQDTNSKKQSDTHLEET
Assay: flow cytometry, CHO cells expressing huPD-L1
The label depends only on MFI at 33.3 nM: 1 (yes) if it is at least 30000 MFI, 0 (no) if it is smaller.

# Binder, Class
measured = [
    ("variant CD80 IgV-Fc Q33L/E35D/M47I/L85Q (Fc fusion) VIHVTKEVKEVATLSCGHNVSVEELAQTRIYWLKDKKMVLTMMSGDINIWPEYKNRTIFDITNNLSIVILALRPSDEGTYECVVQKYEKDAFKREHLAEVTLSVKAD", "1 (yes)"),
    ("variant CD80 IgV-Fc E35D/M47V/N48K/V68M/L85Q (Fc fusion) VIHVTKEVKEVATLSCGHNVSVEELAQTRIYWQKDKKMVLTMMSGDVKIWPEYKNRTIFDITNNLSIMILALRPSDEGTYECVVQKYEKDAFKREHLAEVTLSVKAD", "0 (no)"),
    ("variant CD80 IgV-Fc E35D/M47V/A71G/E88D (Fc fusion) VIHVTKEVKEVATLSCGHNVSVEELAQTRIYWQKDKKMVLTMMSGDVNIWPEYKNRTIFDITNNLSIVILGLRPSDEGTYECVVLKYDKDAFKREHLAEVTLSVKAD", "1 (yes)"),
    ("variant CD80 IgV-Fc E35D/M47V/N48K (Fc fusion) VIHVTKEVKEVATLSCGHNVSVEELAQTRIYWQKDKKMVLTMMSGDVKIWPEYKNRTIFDITNNLSIVILALRPSDEGTYECVVLKYEKDAFKREHLAEVTLSVKAD", "0 (no)"),
    ("variant CD80 IgV-Fc Q33L/E35D/M47I (Fc fusion) VIHVTKEVKEVATLSCGHNVSVEELAQTRIYWLKDKKMVLTMMSGDINIWPEYKNRTIFDITNNLSIVILALRPSDEGTYECVVLKYEKDAFKREHLAEVTLSVKAD", "1 (yes)"),
    ("variant CD80 IgV-Fc E35D/M47V/V68M/L85Q/K89N (Fc fusion) VIHVTKEVKEVATLSCGHNVSVEELAQTRIYWQKDKKMVLTMMSGDVNIWPEYKNRTIFDITNNLSIMILALRPSDEGTYECVVQKYENDAFKREHLAEVTLSVKAD", "0 (no)"),
    ("variant CD80 IgV-Fc E35D/D46V/V68M (Fc fusion) VIHVTKEVKEVATLSCGHNVSVEELAQTRIYWQKDKKMVLTMMSGVMNIWPEYKNRTIFDITNNLSIMILALRPSDEGTYECVVLKYEKDAFKREHLAEVTLSVKAD", "0 (no)"),
    ("variant CD80 IgV-Fc V22A/R29H/E35D/D46E/M47I (Fc fusion) VIHVTKEVKEVATLSCGHNVSAEELAQTHIYWQKDKKMVLTMMSGEINIWPEYKNRTIFDITNNLSIVILALRPSDEGTYECVVLKYEKDAFKREHLAEVTLSVKAD", "0 (no)"),
]
